- protocol_summary: physchem
- measurement_setup: octanol/water
- Description: Partition coefficient (logP) (HPLC)
test_readout: logP

Requested field: logP. Item: "CN(C)CCCc1ccc(Cl)cc1.Cl"
2.21

Can you check "CC(C)c1ccc(CCCN(C)C)cc1.Cl" next?
2.75

Can you check "COc1ccc(-c2ccc(CCCN(C)C)cc2)cc1.Cl" next?
2.95

Can you check CN(C)CC(Cc1ccccc1)c1ccccc1.Cl (configuration not stated) next?
2.59

Can you check "COc1ccc(-c2ccc(CCC[N+](C)(C)C)cc2)cc1" next?
2.17

Can you check "CCOc1ccc(-c2ccc(CCCN(C)C)cc2)cc1.Cl" next?
3.3

Can you check "C[N+](C)(C)CCCc1ccccc1.[Cl-]" next?
0.44

###

- protocol_summary: physchem
- measurement_setup: octanol/water
# if measured logP < 2: Met  # else: Not met

Please indicate whether the reported logP of "CN(C)CCCc1ccc(O)cc1.Cl" is strictly below 2.
Met

Can you check "CN(C)CCCc1cccnc1.Cl" next?
Met

Can you check "CN(C)CCCc1ccc(-c2ccc(Cl)cc2)cc1.Cl" next?
Not met

Can you check "CN(C)CCCc1ccc(N)cc1.Cl" next?
Met

Can you check "CCc1ccc(CCCN(C)C)cc1.Cl" next?
Not met

Can you check CN(C)CCC(c1ccccc1)c1ccc(-c2ccccc2)cc1 (centres undefined) next?
Not met

Can you check "CN(C)CCCc1ccc(C(C)(C)C)cc1.Cl" next?
Not met

Can you check "CN(C)CCCc1ccc([N+](=O)[O-])cc1.Cl" next?
Met

Can you check "CN(C)CCC(c1ccccc1)c1ccccc1.Cl" next?
Not met

Can you check "CN(C)CCCc1ccc(O)c(Cl)c1.Cl" next?
Met

Can you check "CN(C)CCCc1ccc2ccccc2c1.Cl" next?
Not met

Can you check "CN(C)CCCc1ccccc1.Cl" next?
Met

Can you check "CCCc1ccc(CCCN(C)C)cc1.Cl" next?
Not met

###

- protocol_summary: physchem
- measurement_setup: octanol/water
Please respond with reported logP for every item in the list.
Number only, please.

Requested field: logP. Item: "COc1ccc(CCCN(C)C)cc1Cl.Cl"
1.92

Can you check "CN(C)CCCc1ccc(Br)cc1" next?
2.37

Can you check "CN(C)CCCc1ccc(-c2ccccc2)cc1.Cl" next?
2.99

Can you check "CN(C)CCCc1ccc(-c2ccc(O)cc2)cc1.Cl" next?
2.1

###

- protocol_summary: physchem
- Description: Dissociation constant (pKa)
Please respond with reported pKa for every item in the list.
Number only, please.

Requested field: pKa. Item: "CCCc1ccc(CCCN(C)C)cc1.Cl"
10.5

Can you check "Cc1ccc(CCCN(C)C)cc1.Cl" next?
10.8

Can you check "CCOc1ccc(-c2ccc(CCCN(C)C)cc2)cc1.Cl" next?
9.82

Can you check "CN(C)CCCc1ccc(C(C)(C)C)cc1.Cl" next?
10

Can you check "CN(C)CCCc1ccc(Cl)cc1.Cl" next?
10.6

Can you check "CN(C)CCCc1cccnc1.Cl" next?
10.7

Can you check CN(C)CC(Cc1ccccc1)c1ccccc1.Cl (centres undefined) next?
9.93

Can you check "CN(C)CCC(c1ccccc1)c1ccccc1.Cl" next?
10

Can you check "CCc1ccc(CCCN(C)C)cc1.Cl" next?
10.6

Can you check "CN(C)CCCc1ccc2ccccc2c1.Cl" next?
10.3

Can you check "CN(C)CCCc1ccc(-c2ccc(O)cc2)cc1.Cl" next?
9.32

Can you check "CN(C)CCCc1ccccc1.Cl" next?
11

Can you check "COc1ccc(-c2ccc(CCCN(C)C)cc2)cc1.Cl" next?
9.85

Can you check "CN(C)CCCc1ccc(-c2ccc(Cl)cc2)cc1.Cl" next?
9.96

###

- protocol_summary: physchem
Please respond with reported pKa for every item in the list.
Number only, please.

Requested field: pKa. Item: "CN(C)CCCc1ccc([N+](=O)[O-])cc1.Cl"
10.7

Can you check "CN(C)CCCc1ccc(-c2ccccc2)cc1.Cl" next?
9.88

Can you check "CC(C)c1ccc(CCCN(C)C)cc1.Cl" next?
10.5

Can you check "COc1ccc(CCCN(C)C)cc1Cl.Cl" next?
10.8

Can you check "CN(C)CCCc1ccc(N)cc1.Cl" next?
10.9

Can you check CN(C)CCC(c1ccccc1)c1ccc(-c2ccccc2)cc1 (configuration not stated) next?
9.85

Can you check "CN(C)CCCc1ccc(Br)cc1" next?
10.6
